Details: buffer; pH 7.4; 200.0 µM
test-readout: solubility kinetic (µg/mL)
Quick note: give the figure in µg/mL, leave out the unit.

* CCNc1nc(NCC)nc(NC(N)=S)n1 | 9

Query: Recorded solubility kinetic for S=c1[nH]c2ccc(Cc3ccc4[nH]c(=S)[nH]c4c3)cc2[nH]1 , please?
Response: 1.7

Query: Recorded solubility kinetic for CSc1ccccc1NC(=O)CN(C)C(C)C(=O)NCc1ccc2c(c1)OCO2 (configuration not stated) , please?
Response: 16

Query: Recorded solubility kinetic for CC(=O)c1ccc(N2CCN(C(=O)Nc3ccc(Cl)cc3)CC2)cc1 , please?
Response: 1.3

Query: Recorded solubility kinetic for CCOC(=O)c1nc(-c2ccc(OC)c(OC)c2)no1 , please?
Response: 40.8

Query: Recorded solubility kinetic for Cc1ccc(NC(=O)c2cncc(Br)c2)nc1 , please?
Response: 28.1

Query: Recorded solubility kinetic for O=C(c1cc(F)c(F)cc1Cl)N1CCN(c2ncccn2)CC1 , please?
Response: 49.3

Query: Recorded solubility kinetic for O=C(NCc1ccccc1)c1ccccc1Br , please?
Response: 36.4

###

Conditions: buffer; pH 7.4; 200.0 µM
Classes (solubility kinetic): band A = under 8 µg/mL, band B = from 8 µg/mL up to 40 µg/mL, band C = 40 µg/mL and over

The following compounds have reported results that may help.
* O=C1CSC(c2cccnc2)N1Cc1ccc(Cl)c(Cl)c1 (centres undefined) | band C
* O=C(NCC(c1ccco1)N1CCCC1)c1sc2cc(F)ccc2c1Cl (centres undefined) | band A

Query: GET /class?item= CCC(C)(C(=O)NC1CCCC1)N(C)C(=O)c1ccccn1 (centres undefined)
Response: band C

Query: GET /class?item= Cc1ccc(-c2ccc(S(=O)(=O)N3CC(C)OC(C)C3)cc2)cc1 (centres undefined)
Response: band A

Query: GET /class?item= COc1ccc(-c2noc(CNC(=O)c3ccoc3C)n2)cc1
Response: band B

Query: GET /class?item= O=C(NCC(c1ccco1)N1CCOCC1)c1cccc(Cl)c1 (centres undefined)
Response: band C

###

Settings: buffer; pH 7.4; 200.0 µM
molecules and their reported log10 of solubility kinetic
Hi team, quick reminder: these entries are log10 of solubility kinetic (µg/mL).

The cases that follow already have their log10 of solubility kinetic on record.
* Cc1ccc(/C=C/C(=O)O)cc1S(=O)(=O)NCc1cccnc1 | 1.67
* Cc1ccccc1NS(=O)(=O)c1ccc2c(c1)oc(=O)n2C | 0.36
* O=C(Nc1nc2ccc(Cl)cc2s1)C1CC1 | 0.68
* CC(=O)c1ccc(OCCCC(=O)NCCc2ccccc2)cc1 | 1.59
* COc1ccc2nc(NC(=O)Nc3ccccc3OC)sc2c1 | 0.15

Query: Recorded log10 of solubility kinetic for CCCCNC(=O)C1CCN(c2nc(C)cc(C)n2)CC1 , please?
Response: 0.95

Query: Recorded log10 of solubility kinetic for CCOc1ccc(Cl)cc1S(=O)(=O)N1CCC(C(=O)NCc2ccco2)CC1 , please?
Response: 0.56

Query: Recorded log10 of solubility kinetic for CSc1cccc(NC(=S)NCCCO)c1 , please?
Response: 1.57

Query: Recorded log10 of solubility kinetic for Cn1c(C(=O)N2CCN(c3ccccc3)CC2)cc2cc(Cl)ccc21 , please?
Response: 0.64

###

Conditions: buffer; pH 7.4; 200.0 µM
Rule: solubility kinetic of 40 µg/mL or more gives 1; anything lower gives -1.

* CC(C)(C)c1ccc(N2C(=O)CC(C/C=C/c3ccccc3)C2=O)cc1 (configuration not stated) | -1
* COc1ccc(Br)cc1S(=O)(=O)NCCc1cccs1 | -1

Query: Answer whether solubility kinetic of COCCOn1c(SCCOC)nc2ccccc2c1=O is greater than or equal to 40 µg/mL.
Response: 1

Query: Answer whether solubility kinetic of Cc1cc(NC(=O)CN2CCN(c3cccc(Cl)c3)CC2)no1 is greater than or equal to 40 µg/mL.
Response: 1

Query: Answer whether solubility kinetic of Cc1cc(C(=O)Cn2cnc3cc(F)ccc3c2=O)c(C)n1C1CC1 is greater than or equal to 40 µg/mL.
Response: -1

Query: Answer whether solubility kinetic of COc1cc(S(=O)(=O)NCc2ccc3c(c2)OCO3)ccc1F is greater than or equal to 40 µg/mL.
Response: -1

Query: Answer whether solubility kinetic of COc1ccc(Cl)cc1NC(=O)C1CCN(S(C)(=O)=O)CC1 is greater than or equal to 40 µg/mL.
Response: 1

Query: Answer whether solubility kinetic of Cc1cc(C(=O)Nc2ccc(N3CCOCC3)c(Cl)c2)c(C)o1 is greater than or equal to 40 µg/mL.
Response: 1

Query: Answer whether solubility kinetic of COc1cc(OC)cc(C(=O)Nc2ccc(C(=O)Nc3ccccc3OC)cc2)c1 is greater than or equal to 40 µg/mL.
Response: -1
